- System: L1210
- method: Antitumor activity against mouse L1210 cells allografted in mouse
- Assay type: functional
Calls of active or inactive are those of the source. The rule behind the calls is not given here.
test-readout: Activity

>>> print(df.to_string())
                                   compound  endpoint_value
0  C=C1CC(CCCCC2CC(=C)C(=O)O2)OC1=O (centres undefined)        inactive
1  C=C1CC(CCCCCCC2CC(=C)C(=O)O2)OC1=O (centres undefined)        inactive
2  C=C1CC(CCCC2CC(=C)C(=O)O2)OC1=O (centres undefined)        inactive
3  C=C1CC(CCCCCC2CC(=C)C(=O)O2)OC1=O (centres undefined)        inactive

Just for reference, ChEMBL document CHEMBL3271996 is where these values come from.
